experiment: qHTS Assay for Identification of Small Molecule Agonists for Hypoxia Response Element Signaling Pathway (AID 914); conditions: ME-180 HRE-bla reporter, beta-lactamase ratio, CoCl2, 17 h; stronger effect = higher value; further: % of control where 0% means no effect
Records with an inconclusive call do not appear.
This section presents molecules with their documented activation values.
measurement_label: activation (%)

COc1ncc2nc(CCc3ccccc3)c(=O)n(CCC#N)c2n1 | -14.7
CS(=O)(=O)Nc1cccc(-c2ccc3ncnc(NCc4cccnc4)c3c2)c1 | -27.3
COc1ccc(CNc2ccnc(-c3cccc(C#N)c3)n2)c(OC)c1 | -5.53
COc1cccc(-c2nc(NCc3cnc(C)cn3)c3ccccc3n2)c1 | 6.27
COc1ccccc1CN1CCCC2(CCN(C(=O)c3csnn3)CC2)C1 | 12.1
Cc1cnc(CNc2nc(-c3ccoc3)nc3ccccc23)cn1 | -5.75
COc1ccccc1CN1CC[C@@]2(CCCN(C(=O)c3ccco3)C2)C1 | 6.4
Cc1cccc(CNc2ccnc(-c3ccccc3C(F)(F)F)n2)c1 | -2.48
Cc1noc(C)c1-c1nccc(Nc2ccc(F)cc2)n1 | 21.5
O=C(c1ccco1)N1CCC2(CCN(Cc3cc(C(F)(F)F)cc(C(F)(F)F)c3)CC2)CC1 | -7.14
COc1ccc2[nH]cc(CCNc3nc(-c4ccoc4)nc4ccccc34)c2c1 | -13.1

====

Biological target: Mitogen-activated protein kinase 10 (Mus musculus) (UniProt Q61831)
Assay: JNK3 AlphaScreen Assay (AID 530);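 further: kinase came from lysate of stimulated human HepG2 cells; signal reports phosphorylation of biotinylated GST-cJun 1-79 at Ser73 with 10 µM ATP; on the % scale 0 is the no-effect control and ±100 the full control effect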
Details: JNK3 lysate, c-Jun phosphorylation; series mostly up to 57.1 µM
Source text: NIH Chemical Genomics Center [NCGC] NIH Molecular Libraries Screening Centers Network [MLSCN] The c-jun N-terminal kinase (JNK) family are serine/threonine protein kinases that phosphorylate c-jun, a component of the transcription factor protein-1 (AP-1). […] A homogeneous AlphaScreen is developed to measure the activity of JNK3. […] The phosphorylation of a biotinylated c-jun substrate by JNK3 can be detected with an antibody raised against phosphorylated c-jun. […]
Records with an inconclusive call do not appear. Calls of active or inactive are those of the source. Calls come from the whole dose curve; as a rule, active = well fitted curve in either direction with a large enough effect (not every such curve was filed as active); inconclusive = small, poorly fitted or top-dose-only effect, or another doubt; inactive = flat fitted curve, though single readings scatter.
measurement_label: outcome

COCC(=O)N1CCC2(CCCN(Cc3ccccc3OC)C2)CC1 | inactive
CN1[C@@H]2CC[C@H]1CC(OC(=O)[C@@H](O)c1ccccc1)C2 (stereo partly specified) | inactive
COc1cccc(-c2nc(N3CCNCC3)c3ccccc3n2)c1 | inactive
Cn1cc(-c2nc3cnc(N4CCOCC4)nc3n(CCC#N)c2=O)c2ccccc21 | inactive
Cn1c(=O)c(CCc2ccccc2)nc2cnc(Oc3ccccc3)nc21 | inactive
CC(C)NC(=O)N1CCCC2(CCN(C(=O)c3cccn3C)CC2)C1 | inactive
COc1cccc(Nc2ncc3nc(-c4cccs4)c(=O)n(CCC#N)c3n2)c1 | inactive
O=C(c1cnccn1)N1CCC[C@@]2(CCN(Cc3ccncc3)C2)C1 | inactive
O=C(c1ccco1)N1CCC2(CC1)CN(c1ccccn1)C2 | inactive
CN(Cc1ccco1)c1cc(-c2cccnc2)ncn1 | inactive
COc1ccccc1CNc1nc(-c2ccc3c(c2)OCO3)nc2ccccc12 | inactive

====

assay: AP1 Signaling Pathway (AID 357); settings: ME-180 (cervical carcinoma) AP-1-bla reporter, EGF-induced, beta-lactamase ratio, 5 h; at 7.69 µM (top of the series) unless noted;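 further: ME-180 reporter cells stimulated with EGF at its EC50 level; on the % scale 0 is the no-effect control and ±100 the full control effect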
Records with an inconclusive call do not appear.
measurement_label: activity change, negative = inhibition (%)

CCNc1ncc2nc(-c3cn(C)c4ccccc34)c(=O)n(CCC#N)c2n1 | -22.2
CC(C)NC(=O)N1CC2(CCN(C(=O)c3cccn3C)CC2)C1 | -10.8
Cn1cccc1C(=O)N1CCC2(CC1)CCN(c1ccncc1)CC2 | -0.611
O=C(Nc1cccc(F)c1)N1CC[C@@]2(CCCN(C(=O)c3csnn3)C2)C1 | -13.9
FC(F)(F)c1cc(CN2CCC3(CCNCC3)CC2)cc(C(F)(F)F)c1 | 3.22
